The measurements presented in this section are drawn from ChEMBL document CHEMBL4364301.

Assay: Toxicity in NMRI mouse xenografted with human 22Rv1 cells assessed as survival rate at 15 mg/kg, ip administered on day 7 and 14 and measured on day 49
Assay type: organism-based
Settings: in vivo
observable: survival at 49 day (%)
Dear colleague, please return just the value in %, with no unit written.

Prompt: Return reported survival at 49 day; argument: CC(=O)O[C@@]12CO[C@@H]1C[C@H](O)[C@@]1(C)C(=O)[C@H](O)C3=C(C)[C@@H](OC(=O)[C@H](O)[C@@H](NC(=O)OC(C)(C)C)c4ccccc4)C[C@@](O)([C@@H](OC(=O)c4ccccc4)[C@H]21)C3(C)C [DOCETAXEL ANHYDROUS]
Completion: 100

###

Listing of recorded microsomal CLint at 3 µM by entry.
Assay: Metabolic stability in liver microsomes (unknown origin) assessed as intrinsic clearance per mg of protein at 3 uM measured upto 45 mins in presence of NADPH by LC-MS/MS analysis
Type: ADME, Microsome
Details: read-out: CLH
Numbers only here, please. The scale is µL/min/mg.

Prompt: Which value of microsomal CLint at 3 µM has been reported for CC(O)(COc1ccccc1C(F)(F)F)C(=O)Nc1ccc(S(F)(F)(F)(F)F)cc1 (racemic) in the records?
Completion: 22

New cases:
Prompt: Could you tell me which microsomal CLint at 3 µM is on file for CC(O)(COc1ccc(S(F)(F)(F)(F)F)cc1)C(=O)Nc1cc(C(F)(F)F)cc(C(F)(F)F)c1 (racemic) ?
Completion: 3.08

Prompt: Query CC(O)(COc1cccc(S(F)(F)(F)(F)F)c1)C(=O)Nc1ccc([N+](=O)[O-])c(C(F)(F)F)c1 (racemic) next
Completion: 3.21

Prompt: Repeat for the following compound: C[C@](O)(CS(=O)(=O)c1ccc(F)cc1)C(=O)Nc1ccc(C#N)c(C(F)(F)F)c1 [(R)-BICALUTAMIDE]
Completion: 6.48

###

Test system: DU-145
Experiment: Antiproliferative activity against human DU145 cells assessed as T/C value at 1 uM incubated for 96 hrs by propidium iodide based 2D monolayer assay
Format: functional
We begin with a simple list: items and their reported T/C.
Number only, in %; omit the unit.

Would you please look over these solved cases?
Prompt: Using the record for CC(O)(COc1cccc(S(F)(F)(F)(F)F)c1)C(=O)Nc1cc(C(F)(F)F)cc(C(F)(F)F)c1 (racemic) , report its T/C.
Completion: 120

Prompt: Same read-out for CC1(C)C(=O)N(c2ccc(C#N)cc2C(F)(F)F)C(=S)N1c1ccc(S(F)(F)(F)(F)F)cc1 ?
Completion: 104

Note: attention shifts to another entry.
Prompt: Which measured T/C value corresponds to CC1(C)C(=O)N(c2ccc(C#N)cc2C(F)(F)F)C(=S)N1c1cccc(S(F)(F)(F)(F)F)c1 ?
Completion: 112

###

Tested on: LNCaP
Assay: Antiproliferative activity against human LNCAP cells assessed as reduction in cell growth incubated for 96 hrs by propidium iodide based 2D monolayer assay
Type: functional
pIC50: −log10 of the molar value.
pIC50 of 5 or higher: TRUE. Under 5: FALSE.

Prompt: Threshold query (pIC50 >= 5) on CC(O)(CSc1cc(C(F)(F)F)cc(C(F)(F)F)c1)C(=O)Nc1ccc(S(F)(F)(F)(F)F)cc1 (racemic)
Completion: FALSE

Prompt: Moving on to CC(O)(COc1ccc(C#N)cc1C(F)(F)F)C(=O)Nc1ccc(S(F)(F)(F)(F)F)cc1 (racemic)
Completion: FALSE

Prompt: Next up: CC(O)(CSc1cc(C(F)(F)F)cc(C(F)(F)F)c1)C(=O)Nc1cccc(S(F)(F)(F)(F)F)c1 (stereo not drawn)
Completion: TRUE

###

Assay: Metabolic stability in liver microsomes (unknown origin) assessed as half life at 3 uM measured upto 45 mins in presence of NADPH by LC-MS/MS analysis
Assay type: ADME, Microsome
This section presents compounds with their documented half-life at 3 µM values.
# number only, unit min dropped from output

Study these solved cases before continuing.
Prompt: What measured half-life at 3 µM goes with CC(O)(COc1ccc(S(F)(F)(F)(F)F)cc1)C(=O)Nc1cc(C(F)(F)F)cc(C(F)(F)F)c1 (racemic) ?
Completion: 450

Prompt: Could you do the same for CC(O)(COc1cccc(S(F)(F)(F)(F)F)c1)C(=O)Nc1ccc([N+](=O)[O-])c(C(F)(F)F)c1 (racemic) , please?
Completion: 431

Prompt: # iterate: C[C@](O)(CS(=O)(=O)c1ccc(F)cc1)C(=O)Nc1ccc(C#N)c(C(F)(F)F)c1 [(R)-BICALUTAMIDE]
Completion: 214

Now consider the entry below.
Prompt: Which half-life at 3 µM reading was recorded for the compound CC(O)(COc1ccccc1C(F)(F)F)C(=O)Nc1ccc(S(F)(F)(F)(F)F)cc1 (racemic) ?
Completion: 63.1

###

Test system: LNCaP
Assay: Antiproliferative activity against human LNCAP cells assessed as reduction in cell growth incubated for 96 hrs by propidium iodide based 2D monolayer assay
Assay type: functional
observable: IC50 (µM)
Report the value in µM with no unit label.

Prompt: What reported IC50 corresponds to CC(O)(CS(=O)(=O)c1cccc(OC(F)(F)F)c1)C(=O)Nc1ccc(S(F)(F)(F)(F)F)cc1 (racemic) on LNCaP?
Completion: 21.7

Prompt: Repeat for the following molecule: CC(O)(CSc1ccc(S(F)(F)(F)(F)F)cc1)C(=O)Nc1ccc([N+](=O)[O-])c(C(F)(F)F)c1 (racemic)
Completion: 8.7

Prompt: Here is the next molecule: CC(O)(CSc1ccc(S(F)(F)(F)(F)F)cc1)C(=O)Nc1cccc(S(F)(F)(F)(F)F)c1 (racemic)
Completion: 12.7

We next turn to a different molecule, shown below.
Prompt: Item CC(O)(COc1ccc(S(F)(F)(F)(F)F)cc1)C(=O)Nc1cc(C(F)(F)F)cc(C(F)(F)F)c1 (racemic) with LNCaP - IC50?
Completion: 1.9

###

Tested on: VCaP
Assay: Antiproliferative activity against human VCaP cells assessed as T/C value at 3.2 x 10^-3 uM incubated for 96 hrs by propidium iodide based 2D monolayer assay
Assay type: functional
T/C overview
Just the number please, in %, no unit attached.

Guide cases for T/C, answers given:
Prompt: Missing value: T/C, VCaP, entry CC(O)(COc1ccc(S(F)(F)(F)(F)F)cc1)C(=O)Nc1cc(C(F)(F)F)cc(C(F)(F)F)c1 (racemic) . Fill in?
Completion: 105

Prompt: What would you report for CC1(C)C(=O)N(c2ccc(C#N)cc2C(F)(F)F)C(=S)N1c1ccc(S(F)(F)(F)(F)F)cc1 ?
Completion: 93

Then this molecule:
Prompt: Return T/C measured with VCaP given this molecule: CC(O)(CSc1cc(C(F)(F)F)cc(C(F)(F)F)c1)C(=O)Nc1cccc(C(F)(F)C(F)(F)F)c1 (racemic)
Completion: 104

###

Assay: Toxicity in NMRI mouse xenografted with human 22Rv1 cells assessed as survival rate at 100 mg/kg, ip administered for 16 days and measured on day 40
Type: organism-based
Settings: in vivo
observable: survival at 384 h (%)
Please state the figure in %; there is no need to write the unit.

Prompt: Could you tell me which survival at 384 h is on file for CC(O)(COc1ccc(S(F)(F)(F)(F)F)cc1)C(=O)Nc1cc(C(F)(F)F)cc(C(F)(F)F)c1 (racemic) ?
Completion: 100

###

Tested on: DU-145
Experiment: Antiproliferative activity against human DU145 cells assessed as T/C value at 3.2 x 10^-2 uM incubated for 96 hrs by propidium iodide based 2D monolayer assay
Format: functional
observable: T/C (%)
Answer format: numeric, % implied, no suffix.

Prompt: Kindly state the measured T/C obtained for CC1(C)C(=O)N(c2cccc(S(F)(F)(F)(F)F)c2)C(=S)N1c1cccc(C(F)(F)F)c1 with DU-145.
Completion: 96

Prompt: Next compound up: CC(O)(COc1ccc(S(F)(F)(F)(F)F)cc1)C(=O)Nc1cc(C(F)(F)F)cc(C(F)(F)F)c1 (racemic)
Completion: 106

Prompt: Same for CC(O)(COc1cc(C(F)(F)F)cc(C(F)(F)F)c1)C(=O)Nc1cccc(S(F)(F)(F)(F)F)c1 (racemic)
Completion: 114

Prompt: Record: CC(O)(CSc1cc(C(F)(F)F)cc(C(F)(F)F)c1)C(=O)Nc1cccc(C(F)(F)C(F)(F)F)c1 (racemic)
Completion: 123

Prompt: Moving on to CC1(C)C(=O)N(c2ccc(C#N)cc2C(F)(F)F)C(=S)N1c1ccc(S(F)(F)(F)(F)F)cc1
Completion: 111

Prompt: Repeat for the following compound: CC(O)(COc1ccc(C(F)(F)C(F)(F)F)cc1)C(=O)Nc1cc(C(F)(F)F)cc(C(F)(F)F)c1 (racemic)
Completion: 108

Prompt: Consider next the compound CC(O)(COc1cccc(S(F)(F)(F)(F)F)c1)C(=O)Nc1cc(C(F)(F)F)cc(C(F)(F)F)c1 (racemic) in the same way.
Completion: 105

Prompt: Another: CC1(C)C(=O)N(c2ccc(C#N)cc2C(F)(F)F)C(=S)N1c1cccc(S(F)(F)(F)(F)F)c1
Completion: 107

Prompt: Let us now turn to CC(O)(COc1cc(C(F)(F)F)cc(C(F)(F)F)c1)C(=O)Nc1ccc(S(F)(F)(F)(F)F)cc1 (racemic)
Completion: 105
